Documented T/C across a set of molecules
- Tested on: L1210 leukemia ip in BDF1 mice, survival T/C
- assay_overview: NCI In Vivo Anticancer Drug Screen. Data for tumor model L1210 Leukemia (intraperitoneal) in B6D2F1 (BDF1) mice
- condition: endpoint: mean survival time; dose: 50.0 mg/kg/injection; schedule: Q01DX001 (ip); vehicle: saline with Tween-80; higher = longer survival
Toxic doses and inconclusive results are not listed.

Consider the worked cases shown below.
CCCCCCCCCC/C=N/Nc1ccc([N+](=O)[O-])cc1[N+](=O)[O-]    93 % of control
CSc1ncnc2c1ncn2N(CCCCN=C=S)C(C)=O    103 % of control
COc1ccc([I+]c2ccccc2)cc1    102 % of control

From here, focus on the item given below.
// fetch L1210 leukemia ip in BDF1 mice, survival T/C T/C for CC1C[N+](C)=C(c2ccc(O)cc2)S1 (centres undefined)
103 % of control

Each recorded value in this set is attributed to PubChem BioAssay AID248.
